# System: L1210 leukemia ip in BDF1 mice, survival T/C
# assay text: NCI In Vivo Anticancer Drug Screen. Data for tumor model L1210 Leukemia (intraperitoneal) in B6D2F1 (BDF1) mice
# condition summary: endpoint: mean survival time; dose: 100.0 mg/kg/injection; schedule: Q01DX001 (ip); vehicle: acetone; higher = longer survival
Inconclusive results and toxic doses are left out.
Entries annotated with measured T/C

{"columns": ["smiles repr", "T/C"],
 "data": [
  ["CCOC(=O)C(C)(C)CC(=O)COC", "98 % of control"],
  ["COc1c(Cl)cc([N+](=O)[O-])c(OC)c1[N+](=O)[O-]", "94 % of control"],
  ["COc1ccc(CN2CCCN(Cc3ccc(OC)cc3)C2c2cc(I)cc(I)c2O)cc1", "96 % of control"],
  ["C=CN1CCCC1=O", "95 % of control"]
]}

Data provenance is PubChem BioAssay AID248.
